# procedure-details: NCI Yeast Anticancer Drug Screen. Data for the rad50EPP+ strain (AID 151);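 further: 0% = growth of vehicle-treated control cultures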
# test-settings: S. cerevisiae rad50 mutant strain, at 1.2 µM
The panel holds about 79,000 compounds, 15% with a hit somewhere; the sample as a whole holds those more often. Active and inactive are the calls of the source. No stated cut-off is given here; in the data, active means growth inhibition above about 70%; inactive means the rest.
Entry note: the call must match one of 1.0 (active), 0.0 (inactive)

Some entries whose results are on file:
molecule	label-class
CCC(=O)OC1CCn2c1nc1c2C(=O)C(C)=C(N2CC2)C1=O (configuration not stated)	0.0
Cc1ccc2c(c1N)C(=O)c1ccccc1C2=O	0.0
Oc1ccc2nc3ccccc3nc2c1	0.0
OC1(c2ccccc2)CC2CCC(C1)N2CCCC(O)(c1ccccc1)c1ccccc1 (configuration not stated)	0.0
CC[C@@]1(O)C(=O)OCc2c1cc1n(c2=O)Cc2cc3ccccc3nc2-1	1.0

Short answer needed: outcome of this test for CCNC(=O)OCC1C2=C(C(=O)C(C)=C(N)C2=O)N2CC3C(N3C)C12OC (configuration not stated) ? 0.0

Short answer needed: outcome of this test for COc1ccc(OC)c(/C=C/[N+](=O)[O-])c1 ? 0.0

Short answer needed: outcome of this test for CC1CCCN(CCc2ccccc2)CC1 (configuration not stated) ? 0.0

Short answer needed: outcome of this test for CCOP(=S)(S)OCC.[Pd] ? 0.0

Short answer needed: outcome of this test for [N-]=[N+]=C1C(Cl)=C(Cl)C(Cl)=C1Cl ? 0.0

Short answer needed: outcome of this test for CCCCCCCCCCCCCCCCP(=O)(O)OP(=O)(O)OCC1OC(n2ccc(N)nc2=O)C(O)C1O (configuration not stated) ? 0.0

Short answer needed: outcome of this test for C/C(=N\O)c1ccc2ccc3ccccc3c2c1 ? 0.0
